The origin of these recorded values is the supplement of paper PMC6757056.

B1: library; a variant is named by its letters at N, in order (parent)
chain: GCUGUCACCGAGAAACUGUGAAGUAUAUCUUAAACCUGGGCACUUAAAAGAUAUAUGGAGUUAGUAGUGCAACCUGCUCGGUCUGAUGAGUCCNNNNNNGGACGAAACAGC

Variants of: B1
assay_procedure: normalized RNA/DNA level with ligand (relative to sTRSVctl = 100) (log10 (% of sTRSVctl)); HEK293T; ligand: cyclic di-GMP (c-di-GMP-II aptamer); ligand concentration (+) RNA-Seq: 1 mM; higher = less ribozyme self-cleavage, higher mRNA level
condition_context: reporter: mCherry (pCS4076), ligand present: yes
value_type: normalized RNA/DNA level with ligand (log10)
Reply: number alone, nothing else.

Solved entries:
>  <variant>
UUGUUU

>  <result_number>
1.92

$$$$
>  <variant>
CAUUGG

>  <result_number>
1.93

$$$$
>  <variant>
UACACA

>  <result_number>
1.84

$$$$
>  <variant>
AUCACG

>  <result_number>
1.78

$$$$
>  <variant>
CUGCGU

>  <result_number>
1.84

$$$$

Query :: What measured normalized RNA/DNA level with ligand (log10) goes with AUGCAG ?
Result :: 1.89

Query :: What measured normalized RNA/DNA level with ligand (log10) goes with GUUCUC ?
Result :: 1.88

Query :: What measured normalized RNA/DNA level with ligand (log10) goes with GCCAAU ?
Result :: 1.75

Query :: What measured normalized RNA/DNA level with ligand (log10) goes with CGUAAU ?
Result :: 1.53

Query :: What measured normalized RNA/DNA level with ligand (log10) goes with UUCUCG ?
Result :: 1.91

Query :: What measured normalized RNA/DNA level with ligand (log10) goes with GUUUGA ?
Result :: 1.71
